# target-of-assay: Dual specificity tyrosine-phosphorylation-regulated kinase 1B (Homo sapiens) (UniProt Q9Y463)
# Sequence (Q9Y463 whole entry, looked up, the tested form may be a part): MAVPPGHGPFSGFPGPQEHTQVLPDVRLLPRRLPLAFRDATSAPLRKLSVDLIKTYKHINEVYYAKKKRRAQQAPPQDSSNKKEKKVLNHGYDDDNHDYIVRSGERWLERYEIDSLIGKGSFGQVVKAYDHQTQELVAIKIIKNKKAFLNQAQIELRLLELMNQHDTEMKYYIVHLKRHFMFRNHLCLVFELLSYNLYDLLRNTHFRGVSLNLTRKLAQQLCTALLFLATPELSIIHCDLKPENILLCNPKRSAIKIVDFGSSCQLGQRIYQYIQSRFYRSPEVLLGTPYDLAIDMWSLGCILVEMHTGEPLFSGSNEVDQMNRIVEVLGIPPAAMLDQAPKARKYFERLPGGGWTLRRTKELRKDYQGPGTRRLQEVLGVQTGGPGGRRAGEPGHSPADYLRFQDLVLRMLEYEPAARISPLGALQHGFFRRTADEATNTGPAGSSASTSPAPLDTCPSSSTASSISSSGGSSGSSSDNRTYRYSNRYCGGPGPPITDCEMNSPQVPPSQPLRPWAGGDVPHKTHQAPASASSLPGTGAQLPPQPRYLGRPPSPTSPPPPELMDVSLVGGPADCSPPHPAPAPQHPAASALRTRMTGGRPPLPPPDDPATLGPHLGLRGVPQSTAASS
# assay-info: Inhibition of wild-type human full length DYRK1B (M1 to S629 residues) expressed in bacterial expression system assessed as remaining activity at 1 uM by Kinomescan method relative to control
Classify by measured Activity: y if it is equal to or exceeds 8%, n if it is smaller.

Problem: Could you tell me if the measured Activity of "CN(C)c1nccc(-c2cnn3ncccc23)n1" reaches 8% or more?
Solution: n

Problem: Now this one: NC1CCN(c2nccc(-c3cnn4ncccc34)n2)C1 (single isomer, unassigned)
Solution: y

Problem: Now this one: "Cc1cnn2ncc(-c3ccnc(N(C)C)n3)c2c1"
Solution: n

Problem: Now this one: "C[C@H]1CCN(c2nccc(-c3cnn4ncccc34)n2)C1"
Solution: n

Problem: Now this one: CC1CCN(c2nccc(-c3cnn4ncccc34)n2)C1 (single isomer, unassigned)
Solution: y

Problem: Now this one: "N[C@H]1CCN(c2nccc(-c3cnn4ncccc34)n2)C1"
Solution: y

Problem: Now this one: "c1cnn2ncc(-c3ccnc(N4CCC45COC5)n3)c2c1"
Solution: y

Problem: Now this one: CC1CCCN1c1nccc(-c2cnn3ncccc23)n1 (stereo not drawn)
Solution: y

Problem: Now this one: "CN(C)c1nccc(-c2cnc3ncccn23)n1"
Solution: n

Problem: Now this one: FC1CCN(c2nccc(-c3cnn4ncccc34)n2)C1 (single isomer, unassigned)
Solution: y

Problem: Now this one: "COc1ccnn2ncc(-c3ccnc(N(C)C)n3)c12"
Solution: n

Problem: Now this one: "CN(C)c1ncc(F)c(-c2cnn3ncccc23)n1"
Solution: y

Problem: Now this one: "CN(c1nccc(-c2cnn3ncccc23)n1)C1CC1"
Solution: y

----------
# assay-info: Metabolic stability in human liver microsomes
# Format: ADME, Microsome
# experimental-context: read-out: Stabilty
observation-type: microsomal CLint (µL/min/mg)
# number only, unit µL/min/mg dropped from output

Problem: Report microsomal CLint for "C[C@H]1CCN(c2nccc(-c3cnn4ncccc34)n2)C1" please.
Solution: 378

Problem: Now this one: FC1CCN(c2nccc(-c3cnn4ncccc34)n2)C1 (single isomer, unassigned)
Solution: 296

Problem: Now this one: "CN(C)c1ncnc(-c2cnn3ncccc23)n1"
Solution: 93.6

Problem: Now this one: "CN(C)c1nccc(-c2cnn3ncccc23)n1"
Solution: 242

Problem: Now this one: CC1CCN(c2nccc(-c3cnn4ncccc34)n2)C1 (single isomer, unassigned)
Solution: 389

Problem: Now this one: "CN(c1nccc(-c2cnn3ncccc23)n1)C1CC1"
Solution: 71

Problem: Now this one: "CN(C)c1nccc(-c2c[nH]c3ncccc23)n1"
Solution: 154

Problem: Now this one: NC1CCN(c2nccc(-c3cnn4ncccc34)n2)C1 (single isomer, unassigned)
Solution: 40

Problem: Now this one: "COc1ccnn2ncc(-c3ccnc(N(C)C)n3)c12"
Solution: 89

Problem: Now this one: CC1CCCN1c1nccc(-c2cnn3ncccc23)n1 (stereo unspecified)
Solution: 328

Problem: Now this one: "Cc1cnn2ncc(-c3ccnc(N(C)C)n3)c2c1"
Solution: 160

Problem: Now this one: "CN(C)c1nccc(-c2cnc3ncccn23)n1"
Solution: 154

Problem: Now this one: "N[C@H]1CCN(c2nccc(-c3cnn4ncccc34)n2)C1"
Solution: 199

Problem: Now this one: "CN(c1ccccc1)c1nccc(-c2cnn3ncccc23)n1"
Solution: 450

Problem: Now this one: "c1cnn2ncc(-c3ccnc(N4CCC45COC5)n3)c2c1"
Solution: 126

Problem: Now this one: "CN(C)c1ncc(F)c(-c2cnn3ncccc23)n1"
Solution: 697

Where do these numbers come from? They come from ChEMBL document CHEMBL4808225.
